- Test system: HOP-92 NSCLC
- assay.overview: NCI-60 one-dose screen, 48 h
- experimental.conditions: 10 µM unless noted
Compounds without any hit were thinned out: in the full panel of roughly 83,000, 20% have a hit. The source made the active and inactive calls. How the source made its calls: active means growth percent below 10; inactive means the rest.
Output constraint: value belongs to YES = active, NO = inactive

molecule: Cc1ccc(C(F)(F)F)cc1N1CCN(C(=O)[C@H]2C[C@H]2c2ccc(C(F)(F)F)nc2)CC1
classification: NO
//
molecule: N#C/C(=N\Nc1ccccc1)C(=O)Nc1cc(-c2ccccc2)nn1-c1ccccc1
classification: YES
//
molecule: Cc1nc2ccccc2c(/C=C/c2ccc(Br)cc2)c1C(=O)/C=C/c1ccccc1
classification: NO
//
molecule: C[C@@H]1N=C(c2ccc(Cl)cc2Cl)Nc2nc3ccccn3c2C1=O
classification: NO
//
molecule: Cc1cccc(CN(Nc2ccccc2)c2ccccc2)n1
classification: NO

Input: Answer briefly: the call reported for `CC(C)n1cc(C2=C(c3cccc4ccccc34)C(=O)NC2=O)c2cc(Br)ccc21` in this assay.
Output: NO

Input: Answer briefly: the call reported for `COc1ccc(/C=C\c2cc(OC)c(OC)c(OC)c2)cc1OCC(=O)Nc1nc2ccccc2s1` in this assay.
Output: NO

Input: Answer briefly: the call reported for `Cc1c(C(=O)C(SC(=S)N2CCOCC2)SC(=S)N2CCOCC2)nnn1-c1ccc([N+](=O)[O-])cc1` in this assay.
Output: NO

Input: Answer briefly: the call reported for CN(Cc1ccccc1)c1nc(Cl)c(C2CC(c3ccc(Cl)cc3)=NN2c2cc(Cl)cc(Cl)c2)s1 (configuration not stated) in this assay.
Output: NO

Input: Answer briefly: the call reported for `COc1ccc(Nc2nccc(Nc3ccc4[nH]ncc4c3)n2)cc1` in this assay.
Output: YES

Input: Answer briefly: the call reported for COc1ccccc1/C=C/C1=C(C)CCC(c2ccccc2OC)C1C (configuration not stated) in this assay.
Output: YES

Input: Answer briefly: the call reported for `COc1cccc(-c2nn(-c3ccccc3)cc2-c2ccnc(-c3cccnc3)c2)c1` in this assay.
Output: NO

Input: Answer briefly: the call reported for `CC(C)(C#N)c1cc(C(=O)Nc2cc(Nc3ncccc3-c3ncnc4nc[nH]c34)ccc2F)cc(C(F)(F)F)c1` in this assay.
Output: YES

Input: Answer briefly: the call reported for `O=C(/C=C/c1ccc(Cl)cc1)c1ccc(Nc2ccnc3cc(Cl)ccc23)cc1` in this assay.
Output: NO

Input: Answer briefly: the call reported for `Cc1c(-c2cnc3ccc(Cl)cc3c2C(=O)O)nnn1-c1ccc(Cl)cc1` in this assay.
Output: NO

Input: Answer briefly: the call reported for `COc1cccc(/C=C/C(=O)/C=C(/C=C/c2cccc(OC)c2OC)OB(F)F)c1OC` in this assay.
Output: NO

Input: Answer briefly: the call reported for `COc1nc2ccccc2cc1/C=[N+](\[O-])c1ccccc1` in this assay.
Output: NO

Input: Answer briefly: the call reported for CCN1C(=O)N(CC)C2C1NC(=S)N2/N=C/C=C/c1cccs1 (configuration not stated) in this assay.
Output: NO

Input: Answer briefly: the call reported for `Cn1nc(-c2ccc(Cl)cc2)nc2c(=O)n(C)c(=O)nc1-2` in this assay.
Output: YES

Input: Answer briefly: the call reported for `Cc1ccc(Nc2nc(N)nc(N)c2N=O)cc1Cl` in this assay.
Output: NO

Input: Answer briefly: the call reported for `C=CC(=O)Nc1ccc2ncnc(Nc3cccc(NS(=O)(=O)CCC)c3Cl)c2c1` in this assay.
Output: NO

Input: Answer briefly: the call reported for `Nc1ncc(-c2ccc3ncnc(N4CCc5cc(F)c(Cl)cc54)c3c2)cc1C(F)(F)F` in this assay.
Output: NO

* * *

- System: MCF7 breast
- assay.overview: NCI-60 one-dose screen, 48 h (100 = growth as untreated, 0 = no growth, -100 = all killed)
- experimental.conditions: 10 µM unless noted
Compounds without any hit were thinned out: in the full panel of roughly 83,000, 20% have a hit.
quantity.measured: growth (%)
// note: answer is a bare numeric in %

Past entries and their recorded results:
input.smiles: COC(=O)c1c(C(=O)OC)c2ccc3c4ncccc4ccc3n2c1C(=O)c1ccc(C)cc1
growth [%]: 86.2
//
input.smiles: CS(=O)(=O)Nc1cc(-c2ccc3ncnc(Nc4cccc(Cl)c4)c3c2)cnc1Cl
growth [%]: 5.3
//
input.smiles: COc1ccc(Cn2cc(C(=O)N=Nc3c(O)[nH]c4ccc(Br)cc34)nn2)cc1
growth [%]: 86.3
//
input.smiles: CC(C)(C)n1cc(-c2ccnc(NCCNS(=O)(=O)c3ccc(Br)cc3)c2)c(-c2cccc(O)c2)n1
growth [%]: 8.18
//
input.smiles: CN1CCN(Cc2ccc(NC(=O)c3cncc(C#Cc4cnc(N)c5ccc(C#N)cc45)c3)cc2C(F)(F)F)CC1
growth [%]: -60.8
//
input.smiles: N#CSCc1cc(Cl)c(CSC#N)cc1Cl
growth [%]: 24.5

Could you now consider this next compound?
What the record says about `COC(=O)c1ccc(-n2cc(CCCOS(=O)(=O)c3ccc(F)cc3)nn2)cc1` : growth is 92.1

* * *

- Tested on: HCT-15 colon
- assay.overview: NCI-60 one-dose screen, 48 h (100 = growth as untreated, 0 = no growth, -100 = all killed)
- experimental.conditions: 10 µM unless noted
The panel holds about 83,000 compounds, 20% with a hit somewhere; the sample as a whole holds those more often.
quantity.measured: growth (%)
// note: answer is a bare numeric in %

Past entries and their recorded results:
molecule: Cn1cc(-c2csc(-c3cn(C)c4ccc(F)cc34)n2)c2cnccc21
quantity.measured: growth
reading.unit: %
observed: -46.4
//
molecule: O=CN1N=C(c2cccc(Nc3ccncc3)c2)CC1c1ccc2c(c1)OCO2 (centres undefined)
quantity.measured: growth
reading.unit: %
observed: 95.7
//
molecule: O=C(/C=C\c1ccc(O)c(O)c1)c1ccccc1O
quantity.measured: growth
reading.unit: %
observed: 46
//
molecule: COC(=O)c1sc(-c2ccc(C)cc2)cc1O
quantity.measured: growth
reading.unit: %
observed: 101
//
molecule: C=C1C(=O)O[C@H]2[C@H]1CC/C(COC(=O)NCc1ccc(Cn3c(=O)sn(CCCC)c3=O)cc1)=C\CC[C@@]1(C)O[C@@H]21
quantity.measured: growth
reading.unit: %
observed: 24.4

What the record says about `COc1cc(C(=O)c2c(-c3ccccc3)oc3ccccc23)cc(OC)c1O` : growth is 32.1

What the record says about `NCCNc1ccc([N+](=O)[O-])cc1` : growth is 108

What the record says about `COc1cc(C(=O)/C=C/c2c(-c3cccs3)nc3sc(C)cn23)cc(OC)c1OC` : growth is 10.4

What the record says about `CCOc1ccc(-c2cc(C3(S(=O)(=O)c4ccc(C)cc4)CC=CC3)on2)cc1` : growth is 75.3

What the record says about `CC(C)c1nc(N(C)S(C)(=O)=O)nc(-c2ccc(F)cc2)c1/C=C/C(=O)C[C@@H](O)CC(=O)O` : growth is 108

What the record says about `COc1ccc(/C=C/C(=O)c2ccc(-n3cc(CN4CCN(c5cc6c(cc5F)c(=O)c(C(=O)O)cn6C5CC5)CC4)nn3)cc2)cc1` : growth is 80.6

What the record says about O=C1C2C(c3cccs3)C=C(c3ccc(Cl)cc3)N2C(=S)N1c1ccccc1 (centres undefined) : growth is 112

What the record says about `CC(=O)[C@H]1CC[C@]2(C)[C@@H]1CC[C@@H]1[C@@]3(C)C/C(=C/c4cccnc4)C(=O)C(C)(C)[C@@H]3CC[C@]12C` : growth is 54.4

What the record says about `C=CCn1c(SCC(=O)Nc2ccc(C(=O)/C=C/c3cc(OC)c(OC)c(OC)c3)cc2)nnc1-c1cc(-c2ccc(S(N)(=O)=O)cc2)nc2ccccc12` : growth is 97.7

* * *

- Test system: CAKI-1 renal
- assay.overview: NCI-60 one-dose screen, 48 h
- experimental.conditions: 10 µM unless noted
The panel holds about 83,000 compounds, 20% with a hit somewhere; the sample as a whole holds those more often. Active and inactive are the calls of the source. The calls were made as follows: active = growth percent below 10; inactive = the rest.
Output constraint: value belongs to 1.0 (active), 0.0 (inactive)

compound: CC(=O)Cc1nsc(NC(=O)c2cc(-c3cc(Cl)ccc3Cl)oc2C)n1
classification: 0.0
--
compound: O=C1Nc2ccccc2/C1=C/c1cccn1CCCCCCn1c2ccccc2c(=O)c2ccccc21
classification: 0.0
--
compound: CC1=NN(c2cccc(Cl)c2)C(=O)/C1=C\C=C\c1ccccc1
classification: 0.0
--
compound: COc1cccc(/C=C/C(=O)/C=C(/C=C/c2cccc(OC)c2OC)OB(F)F)c1OC
classification: 0.0
--
compound: N#Cc1c(-c2ccc(Cl)cc2)nc(NN=Cc2cccc(Cl)c2)nc1N1CCOCC1
classification: 0.0

Input: Answer briefly: the call reported for `COc1ccc(-c2nc(SCCC(C)C)nc(N/N=C(/C)c3ccc(N)cc3)c2C#N)cc1` in this assay.
Output: 0.0

Input: Answer briefly: the call reported for `O=C(Nc1ccc(Cl)cc1)C1=NCCCCN1` in this assay.
Output: 0.0

Input: Answer briefly: the call reported for COc1ccc(C(c2cc(OC)c(OC)c(OC)c2)n2cncn2)cc1O (configuration not stated) in this assay.
Output: 0.0

Input: Answer briefly: the call reported for C#Cc1c(I)n(C2OC(CO[Si](C)(C)C(C)(C)C)C3OC(C)(C)OC32)c(=O)[nH]c1=O (configuration not stated) in this assay.
Output: 0.0

Input: Answer briefly: the call reported for `COc1ccc(S(=O)(=O)Oc2ccc(-c3sc4cc(OS(=O)(=O)c5ccc(OC)cc5)ccc4c3C(=O)c3ccc(OCCN4CCCCC4)cc3)cc2)cc1` in this assay.
Output: 0.0

Input: Answer briefly: the call reported for `CC/C(=C(/c1ccc(Cl)cc1)c1ccc(OCCN2CCCC2)cc1)c1ccccc1` in this assay.
Output: 0.0
